Kindly supply the reported INHIBITION values for the records listed here.
- Test system: Plasmodium falciparum
- assayExplanation: Screen against P. falciparum Asexual Blood Stage (ABS), at 5uM
- Format: functional, Dd2
- measurementConditions: tested at 5 uM
Hit rate of the full screen: of about 65,000 compounds, about 2,100 (3.2%) showed an effect of 50% or more. The median lay at about -52%. For the sample, strong results were picked, then their nearest neighbours and some compounds at random.
Number only, in %; omit the unit.

// query Specify INHIBITION for CC(C)(C)n1cc(C2=CCN(CCNC(N)=O)CC2)cn1 , system Plasmodium falciparum.
// result -161

// query Specify INHIBITION for c1cnc2c(c1)CN(C1CCOC1)CCN2CC1CC1 (centres undefined) , system Plasmodium falciparum.
// result -73.8

// query Specify INHIBITION for NCCC(Cc1ccccc1)c1ccco1 (centres undefined) , system Plasmodium falciparum.
// result 84.1

// query Specify INHIBITION for Cc1cccc(CN2C[C@H](OCc3csc(C)n3)[C@H]3COC[C@H]32)n1 , system Plasmodium falciparum.
// result -75.9

// query Specify INHIBITION for Cc1cccnc1CC(C)NC1CCSCC1 (centres undefined) , system Plasmodium falciparum.
// result 23.6

// query Specify INHIBITION for CN[C@@H](C)C(=O)N(Cc1cccc(C)c1)Cc1ccccc1OC , system Plasmodium falciparum.
// result 83.6

// query Specify INHIBITION for COCC(=O)NC[C@H]1C[C@@H]2CCN1C[C@@H]2CN1CCc2ccccc21 , system Plasmodium falciparum.
// result 27.2

// query Specify INHIBITION for Cc1ccc([C@]2(O)CC[C@H]3CN(Cc4cc(C)c(O)c(C)c4)C[C@H]32)nc1 , system Plasmodium falciparum.
// result 74.6

// query Specify INHIBITION for CCN1CCC2(CCC1=O)CN(c1nccc(N)n1)CCN2C (centres undefined) , system Plasmodium falciparum.
// result -4.03

// query Specify INHIBITION for c1cnc(NC[C@H]2OC[C@@H]3CCN(Cc4nccs4)C[C@@H]32)nc1 , system Plasmodium falciparum.
// result -52.4

// query Specify INHIBITION for c1ccc(CN2CCN3C[C@H](Oc4cccnc4)C[C@H]3C2)nc1 , system Plasmodium falciparum.
// result -10.5

// query Specify INHIBITION for O=C(NCCc1c[nH]cn1)c1ccccc1C1CCNC1 (centres undefined) , system Plasmodium falciparum.
// result -101

// query Specify INHIBITION for CC(NCCc1nccn1Cc1ccccc1)c1cccs1 (centres undefined) , system Plasmodium falciparum.
// result 86.8

// query Specify INHIBITION for CN1CCc2c(CNC(=O)c3nccn3C)cncc2C1 , system Plasmodium falciparum.
// result -77.8

// query Specify INHIBITION for C/C(=C\c1ccco1)CN(C)C(C)Cc1cc(C)ccn1 (centres undefined) , system Plasmodium falciparum.
// result -0.191

// query Specify INHIBITION for CCN1CCN(c2ccc(F)cc2C(C)NCc2ccnn2C)CC1 (centres undefined) , system Plasmodium falciparum.
// result 76.3

// query Specify INHIBITION for Cc1ccnc(OC[C@@]23CCO[C@@H]2CCN(C2CCC2)C3)n1 , system Plasmodium falciparum.
// result -9.15

// query Specify INHIBITION for Cc1ccc([C@]2(O)CC[C@H]3CN(Cc4ccncc4)C[C@H]32)nc1 , system Plasmodium falciparum.
// result -23.8

// query Specify INHIBITION for CCc1noc(CC)c1CC(=O)N1CCN(C(C#N)C(C)C)CC1 (centres undefined) , system Plasmodium falciparum.
// result -154

// query Specify INHIBITION for Cc1ccc(CNC(C)c2cc(F)ccc2N2CCN(C)CC2)o1 (centres undefined) , system Plasmodium falciparum.
// result 83.7

// query Specify INHIBITION for CN1CCN2C(=O)N(C3CCCCC3)C[C@H]2C1 , system Plasmodium falciparum.
// result -52.1

// query Specify INHIBITION for CCc1ccccc1OCCNCCc1c[nH]cn1 , system Plasmodium falciparum.
// result 71.2

// query Specify INHIBITION for Cc1nnc([C@H]2C[C@@H]3CCN(Cc4cc(C)on4)C[C@H]3O2)[nH]1 , system Plasmodium falciparum.
// result -33.8

// query Specify INHIBITION for Cc1nc(O)cc(CN2CC=C(c3cnn(C(C)(C)C)c3)CC2)n1 , system Plasmodium falciparum.
// result -58.8

// query Specify INHIBITION for c1cc2c(cc1CN1CC[C@H]3CO[C@H](CN4CCCC4)[C@H]3C1)OCO2 , system Plasmodium falciparum.
// result 78.6

// query Specify INHIBITION for Clc1cccc(C(NCc2ncc[nH]2)c2ccccn2)c1 (centres undefined) , system Plasmodium falciparum.
// result 86.9

// query Specify INHIBITION for CCN1CCN(c2ccc(F)cc2C(C)NCc2ccccn2)CC1 (centres undefined) , system Plasmodium falciparum.
// result 85.6

// query Specify INHIBITION for Cc1cccc(CN(Cc2ccc(C)o2)C2CC(C)(C)NC(C)(C)C2)n1 , system Plasmodium falciparum.
// result 77.4

// query Specify INHIBITION for O=C1CC[C@@H]2[C@@H](CCN2Cc2ccccn2)N1CC1CC1 , system Plasmodium falciparum.
// result -65.4

// query Specify INHIBITION for O=C1CC2(CCN(Cc3cccnc3)C2)CN1c1cncnc1 (centres undefined) , system Plasmodium falciparum.
// result -101

// query Specify INHIBITION for CC(C)(C)n1cc(C2=CCN(CCc3ccccn3)CC2)cn1 , system Plasmodium falciparum.
// result 45.2

// query Specify INHIBITION for Cc1cc(N2CCN3CCCCC3C2)n2nc(C)c(C)c2n1 (centres undefined) , system Plasmodium falciparum.
// result -76.1

// query Specify INHIBITION for O=C1CO[C@H]2CN(Cc3ccccc3Br)C[C@@H]2N1 , system Plasmodium falciparum.
// result 7.05

// query Specify INHIBITION for CC(NCCc1nccn1Cc1ccccc1)c1ccsc1 (centres undefined) , system Plasmodium falciparum.
// result 83.5

// query Specify INHIBITION for c1cnc(NC[C@H]2OC[C@@H]3CCN(Cc4ccsc4)C[C@@H]32)nc1 , system Plasmodium falciparum.
// result -30.5

// query Specify INHIBITION for CN1CCN(C[C@@H]2OC[C@H]3CN(Cc4ccncc4)CC[C@H]32)CC1 , system Plasmodium falciparum.
// result -51.3

// query Specify INHIBITION for CC(C)=CCN1C[C@@H]2CC[C@H]1CN(C(=O)CSc1ccncc1)C2 , system Plasmodium falciparum.
// result -26.7

// query Specify INHIBITION for CC(C)(C)n1cc(C2=CCN(CCN3CCCCCC3)CC2)cn1 , system Plasmodium falciparum.
// result 71.5

// query Specify INHIBITION for COc1ccc(C2SCC(=O)Nc3ccsc32)cc1 (centres undefined) , system Plasmodium falciparum.
// result -71.1
